Cited source: PubChem BioAssay AID1963975

- Test system: 624824-186-R-J2-PDC multicell spheroids, viability;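 further: spheroids exposed to agents for 7 days before viability read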
- protocol.summary: Anticancer human tumor 624824-186-R-J2-PDC patient-derived colon adenocarcinoma cell line growth inhibition [PI3K]
- experimental.conditions: second compound 10 µM; first compound 0.316 µM; active compounds read low
Decision: viability, T/C beneath 90% gives Met; viability, T/C meeting or exceeding 90% gives Not met.

// below: answered molecules
Cn1nccc1Nc1nccc(-c2ccn(C(CO)c3ccc(Cl)c(F)c3)c(=O)c2)n1 (centres undefined) + Cc1nc(NC(=O)N2CCCC2C(N)=O)sc1-c1ccnc(C(C)(C)C(F)(F)F)c1    Met
C[C@@H](NC(=O)c1ncnc(N)c1Cl)c1ncc(C(=O)Nc2cc(C(F)(F)F)c(Cl)cn2)s1 + Cc1nc(NC(=O)N2CCCC2C(N)=O)sc1-c1ccnc(C(C)(C)C(F)(F)F)c1    Met
CNC(=O)c1ccc(N2C(=S)N(c3ccc(C#N)c(C(F)(F)F)c3)C(=O)C2(C)C)cc1F + CC(Nc1ncnc2nc[nH]c12)c1cc2cccc(Cl)c2c(=O)n1-c1ccccc1    Not met

Lab log: compare recorded viability, T/C with 90%; is it strictly lower for C#Cc1c(F)ccc2cc(O)cc(-c3ncc4c(N5CC6CCC(C5)N6)nc(OCC56CCCN5CC(F)C6)nc4c3F)c12 (centres undefined) + Cc1nc(NC(=O)N2CCCC2C(N)=O)sc1-c1ccnc(C(C)(C)C(F)(F)F)c1 ?
Met

Lab log: compare recorded viability, T/C with 90%; is it strictly lower for CC1(C)CCC(CN2CCN(c3ccc(C(=O)NS(=O)(=O)c4ccc(NCC5CCOCC5)c([N+](=O)[O-])c4)c(Oc4cnc5[nH]ccc5c4)c3)CC2)=C(c2ccc(Cl)cc2)C1 + Cc1nc(NC(=O)N2CCCC2C(N)=O)sc1-c1ccnc(C(C)(C)C(F)(F)F)c1 ?
Met

Lab log: compare recorded viability, T/C with 90%; is it strictly lower for Cn1nccc1Nc1nccc(-c2ccn(C(CO)c3ccc(Cl)c(F)c3)c(=O)c2)n1 (centres undefined) + CC(Nc1ncnc2nc[nH]c12)c1cc2cccc(Cl)c2c(=O)n1-c1ccccc1 ?
Met

Lab log: compare recorded viability, T/C with 90%; is it strictly lower for CC(Cn1ccc(-c2ccc(C#N)c(Cl)c2)n1)NC(=O)c1cc(C(C)O)[nH]n1 (centres undefined) + CC(Nc1ncnc2nc[nH]c12)c1cc2cccc(Cl)c2c(=O)n1-c1ccccc1 ?
Not met

Lab log: compare recorded viability, T/C with 90%; is it strictly lower for CNC(=O)c1ccc(N2C(=S)N(c3ccc(C#N)c(C(F)(F)F)c3)C(=O)C2(C)C)cc1F + Cc1nc(NC(=O)N2CCCC2C(N)=O)sc1-c1ccnc(C(C)(C)C(F)(F)F)c1 ?
Met

Lab log: compare recorded viability, T/C with 90%; is it strictly lower for CCCS(=O)(=O)Nc1ccc(F)c(C(=O)c2c[nH]c3ncc(-c4ccc(Cl)cc4)cc23)c1F + CC(Nc1ncnc2nc[nH]c12)c1cc2cccc(Cl)c2c(=O)n1-c1ccccc1 ?
Met

Lab log: compare recorded viability, T/C with 90%; is it strictly lower for Cn1ncc(Cl)c1-c1cc(C(=O)NC(CN)Cc2cccc(F)c2)sc1Cl (centres undefined) + Cc1nc(NC(=O)N2CCCC2C(N)=O)sc1-c1ccnc(C(C)(C)C(F)(F)F)c1 ?
Met

Lab log: compare recorded viability, T/C with 90%; is it strictly lower for C=CC(=O)N1CCN(c2nc(=O)n(-c3c(C)ccnc3C(C)C)c3nc(-c4c(O)cccc4F)c(F)cc23)C(C)C1 (centres undefined) + Cc1nc(NC(=O)N2CCCC2C(N)=O)sc1-c1ccnc(C(C)(C)C(F)(F)F)c1 ?
Met
